system under test: NEIL1 (endonuclease VIII-like 1) (Homo sapiens, UniProt Q96FI4 2-390)
Sequence (Q96FI4 2-390): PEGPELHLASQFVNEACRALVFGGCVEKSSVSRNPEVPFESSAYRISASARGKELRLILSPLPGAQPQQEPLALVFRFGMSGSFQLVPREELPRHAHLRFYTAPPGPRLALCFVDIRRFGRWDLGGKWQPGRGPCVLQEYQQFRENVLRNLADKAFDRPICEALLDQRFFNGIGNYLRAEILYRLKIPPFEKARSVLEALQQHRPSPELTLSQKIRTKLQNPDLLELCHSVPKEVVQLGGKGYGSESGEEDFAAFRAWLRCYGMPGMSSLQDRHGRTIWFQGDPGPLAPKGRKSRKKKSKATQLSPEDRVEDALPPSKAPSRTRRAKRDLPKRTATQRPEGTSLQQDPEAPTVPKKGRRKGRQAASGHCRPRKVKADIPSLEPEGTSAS
experiment: MST; MST: 50 mM Tris-HCl pH 7.5, 50 mM KCl, 1 mM EDTA, 1 mM DTT, 7% glycerol, 25 C, 10 min, 0.5 uM DNA; authors call Kd values estimates only
condition parameters: protein: recombinant; label: 5'-FAM, 3'-BHQ1; G-quadruplex
parameter measured: Kd (µM)

• TTAGGGTTAGGGTTAGGGTTAGGGTT (structured_DNA, T14 = thymine glycol) [Q4-Tg] = 9.1
